# Experiment: Tmax in Beagle dog at 2.5 mg/kg, po
# Type: ADME, organism-based, Canis lupus familiaris
# Design: dose 2.5 mg/kg, route oral
# Condition: in vivo
Measured Metric: Tmax (min)
Just the number please, in min, no unit attached.

Please look up its Tmax: C#C[C@H]1CC[C@@H](C#N)N1C(=O)CNC1(C)CCN(c2cc(C(=O)O)ccn2)CC1
48

* * *

# Experiment: Volume of distribution in Beagle dog at 2.5 mg/kg, iv
# Type: ADME, organism-based, Canis lupus familiaris
# Design: dose 2.5 mg/kg, route intravenous
# Condition: in vivo, read-out: Vss
Measured Metric: Vd (L/kg)
Report only the number, with the unit L/kg understood.

What measured Vd goes with C#C[C@H]1CC[C@@H](C#N)N1C(=O)CNC1(C)CCN(c2cc(C(=O)O)ccn2)CC1 ?
1.5

* * *

# Experiment: Cmax in cynomolgus monkey at 2.5 mg/kg, po
# Assay type: ADME, organism-based, Macaca fascicularis
# Parameters: dose 2.5 mg/kg, route oral
# Condition: in vivo
Measured Metric: Cmax (ng/mL)
Could you give me the number in ng/mL? Just the number is fine.

Quick one: Cmax of C#C[C@H]1CC[C@@H](C#N)N1C(=O)CNC1(C)CCN(c2cc(C(=O)O)ccn2)CC1 ?
140

* * *

# Experiment: Oral bioavailability in cynomolgus monkey at 2.5 mg/kg, po
# Assay type: ADME, organism-based, Macaca fascicularis
# Condition: in vivo
Measured Metric: bioavailability (%)
Just the number in %, nothing appended.

Which bioavailability is reported for this compound? C#C[C@H]1CC[C@@H](C#N)N1C(=O)CNC1(C)CCN(c2cc(C(=O)O)ccn2)CC1
11.2

* * *

# Experiment: AUC in Sprague-Dawley rat at 5 mg/kg, iv
# Type: ADME, organism-based
# Design: dose 5 mg/kg, route intravenous
# Condition: plasma
Measured Metric: AUC (ng·h/mL)
// return numeric value only (unit: ng·h/mL, not printed)

Fill in: AUC of C#C[C@H]1CC[C@@H](C#N)N1C(=O)CNC1(C)CCN(c2cc(C(=O)O)ccn2)CC1 is ___
7600

* * *

# Experiment: Plasma clearance in Beagle dog at 2.5 mg/kg, iv
# Assay type: ADME, organism-based, Canis lupus familiaris
# Design: dose 2.5 mg/kg, route intravenous
Measured Metric: clearance
Please state the value followed by its unit.

I'd like to know its clearance. The compound in question is C#C[C@H]1CC[C@@H](C#N)N1C(=O)CNC1(C)CCN(c2cc(C(=O)O)ccn2)CC1
15.2 mL/min/kg

* * *

# Study System: Prolyl endopeptidase (Homo sapiens, UniProt P48147)
# Sequence (P48147 whole entry): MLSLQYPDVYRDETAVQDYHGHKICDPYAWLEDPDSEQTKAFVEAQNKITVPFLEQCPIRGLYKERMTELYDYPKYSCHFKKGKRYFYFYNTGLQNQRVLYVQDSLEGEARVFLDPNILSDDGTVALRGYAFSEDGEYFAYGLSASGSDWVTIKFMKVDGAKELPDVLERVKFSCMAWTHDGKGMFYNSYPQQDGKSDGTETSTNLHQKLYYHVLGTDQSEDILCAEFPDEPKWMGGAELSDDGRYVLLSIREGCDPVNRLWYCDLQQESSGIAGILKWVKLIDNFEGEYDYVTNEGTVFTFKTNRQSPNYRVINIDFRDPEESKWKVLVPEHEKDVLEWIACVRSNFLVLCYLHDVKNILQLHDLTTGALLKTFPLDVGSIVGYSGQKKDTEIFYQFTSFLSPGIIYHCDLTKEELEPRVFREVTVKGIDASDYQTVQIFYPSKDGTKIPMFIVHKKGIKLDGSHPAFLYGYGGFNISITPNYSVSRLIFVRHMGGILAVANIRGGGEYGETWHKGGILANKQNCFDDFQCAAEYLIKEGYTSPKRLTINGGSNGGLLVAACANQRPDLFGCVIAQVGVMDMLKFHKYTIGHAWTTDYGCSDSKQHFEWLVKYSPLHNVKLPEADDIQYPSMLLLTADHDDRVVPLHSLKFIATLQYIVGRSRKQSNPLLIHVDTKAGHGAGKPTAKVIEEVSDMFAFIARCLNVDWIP
pKi: −log10 of the molar value.
Measured Metric: pKi

INSERT INTO assay_data (smiles, study_system, value_observed) VALUES
  ('C#C[C@H]1CC[C@@H](C#N)N1C(=O)CNC1(C)CCN(c2cc(C(=O)O)ccn2)CC1', 'Prolyl endopeptidase (Homo sapiens, UniProt P48147)', '< 4.52');

Here is another molecule to look at.
Query: pKi; subject: C#C[C@H]1CC[C@@H](C#N)N1C(=O)CNC1(C)CCN(c2ccc(C(=O)O)cn2)CC1
< 4.52

* * *

# Experiment: AUC in Beagle dog at 2.5 mg/kg, po
# Type: ADME, organism-based, Canis lupus familiaris
# Set-up: dose 2.5 mg/kg, route oral
# Condition: plasma
Measured Metric: AUC (ng·h/mL)
Write the number in ng·h/mL without appending the unit.

Quick check: AUC of C#C[C@H]1CC[C@@H](C#N)N1C(=O)CNC1(C)CCN(c2cc(C(=O)O)ccn2)CC1 ?
970

* * *

# Experiment: Volume of distribution in cynomolgus monkey at 2.5 mg/kg, iv
# Assay type: ADME, organism-based, Macaca fascicularis
# Design: dose 2.5 mg/kg, route intravenous
# Condition: in vivo, read-out: Vss
Measured Metric: Vd

Reported Vd for C#C[C@H]1CC[C@@H](C#N)N1C(=O)CNC1(C)CCN(c2cc(C(=O)O)ccn2)CC1 : what is it?
0.3 L/kg

* * *

# Experiment: Half life in cynomolgus monkey at 2.5 mg/kg, iv
# Type: ADME, organism-based, Macaca fascicularis
# Parameters: dose 2.5 mg/kg, route intravenous
# Condition: in vivo
Measured Metric: half-life (h)
Expressed in h, but write only the number.

Please report the recorded half-life for C#C[C@H]1CC[C@@H](C#N)N1C(=O)CNC1(C)CCN(c2cc(C(=O)O)ccn2)CC1 .
1.7

* * *

# Experiment: Half life in Sprague-Dawley rat at 5 mg/kg, iv
# Format: ADME, organism-based
# Parameters: dose 5 mg/kg, route intravenous
# Condition: in vivo
Measured Metric: half-life (h)
Give the value, in units of h, as a plain number.

Which value of half-life has been reported for C#C[C@H]1CC[C@@H](C#N)N1C(=O)CNC1(C)CCN(c2cc(C(=O)O)ccn2)CC1 in the records?
6.8

* * *

pKi: −log10 of the molar value.
Values of pKi reported for Prolyl endopeptidase FAP (Homo sapiens) appear below.

INSERT INTO assay_data (smiles, value_observed) VALUES
  ('C#C[C@H]1CC[C@@H](C#N)N1C(=O)CNC1(C)CCN(c2ccc(C(=O)O)cn2)CC1', '< 4.52');

Now examine the next entry.
What is its pKi for Prolyl endopeptidase FAP (Homo sapiens)? Entry: C#C[C@H]1CC[C@@H](C#N)N1C(=O)CNC1(C)CCN(c2cc(C(=O)O)ccn2)CC1
< 4.52

* * *

# Experiment: AUC in cynomolgus monkey at 2.5 mg/kg, po
# Format: ADME, organism-based, Macaca fascicularis
# Parameters: dose 2.5 mg/kg, route oral
# Condition: plasma
Measured Metric: AUC
Note: state the figure and append the unit.

GET /values?readout=AUC&item= C#C[C@H]1CC[C@@H](C#N)N1C(=O)CNC1(C)CCN(c2cc(C(=O)O)ccn2)CC1
580 ng·h/mL

* * *

# Experiment: Volume of distribution in Sprague-Dawley rat at 5 mg/kg, iv
# Type: ADME, organism-based
# Parameters: dose 5 mg/kg, route intravenous
# Condition: in vivo, read-out: Vss
Measured Metric: Vd (L/kg)
# number only, unit L/kg dropped from output

Can you share its Vd? I mean this compound: C#C[C@H]1CC[C@@H](C#N)N1C(=O)CNC1(C)CCN(c2cc(C(=O)O)ccn2)CC1
2.2

* * *

# Experiment: Tmax in Sprague-Dawley rat at 5 mg/kg, po
# Assay type: ADME, organism-based
# Set-up: dose 5 mg/kg, route oral
# Condition: in vivo
Measured Metric: Tmax
Give the number first and the unit second.

Can you share its Tmax? I mean this compound: C#C[C@H]1CC[C@@H](C#N)N1C(=O)CNC1(C)CCN(c2cc(C(=O)O)ccn2)CC1
4.7 h

* * *

# Experiment: AUC in Sprague-Dawley rat at 5 mg/kg, po
# Assay type: ADME, organism-based
# Set-up: dose 5 mg/kg, route oral
# Condition: plasma
Measured Metric: AUC (ng·h/mL)
Respond with the bare value in ng·h/mL.

// lookup AUC for C#C[C@H]1CC[C@@H](C#N)N1C(=O)CNC1(C)CCN(c2cc(C(=O)O)ccn2)CC1
2100

* * *

# Experiment: Cmax in Sprague-Dawley rat at 5 mg/kg, po
# Format: ADME, organism-based
# Design: dose 5 mg/kg, route oral
# Condition: in vivo
Measured Metric: Cmax (ng/mL)
Kindly provide the numeric value in ng/mL only, without the unit symbol.

Sample C#C[C@H]1CC[C@@H](C#N)N1C(=O)CNC1(C)CCN(c2cc(C(=O)O)ccn2)CC1 — what was its Cmax?
370
